Exercise: state measured T/C for each of the compounds provided.
test system: L1210 leukemia ip in BDF1 mice, survival T/C; assay: NCI In Vivo Anticancer Drug Screen. Data for tumor model L1210 Leukemia (intraperitoneal) in B6D2F1 (BDF1) mice; settings: endpoint: mean survival time; dose: 200.0 mg/kg/injection; schedule: Q01DX009 (ip); vehicle: saline with Tween-80; higher = longer survival
Toxic doses and inconclusive results are not listed.

In: Returns the measured T/C for the input compound. Input: `COc1ccccc1-c1c(C(=O)O)cccc1[N+](=O)[O-]`
Out: 106 % of control

In: Can you check `Cc1cccc(NC(=S)N(C)C)c1` next?
Out: 101 % of control

In: And what about the compound `Cc1cc(Cl)c(Cl)cc1NC(=O)Nc1cccc(F)c1` ?
Out: 100 % of control

In: Input COC(=O)C1(C)CCCC2(C)C1CCC13OCC(CC21)C(=C(C)C)C3OC(C)=O (configuration not stated)
Out: 88 % of control

In: Now consider `O=C1C=CC(=Nc2ccccc2Cl)O1` and answer again.
Out: 93 % of control

In: Follow-up entry: `COc1cc2c(cc1O)CCCC(C)(C)C2=O`
Out: 90 % of control

In: Field entry: `C/C(=N/NC(=O)CNC(=O)c1ccccc1)c1ccc2ccccc2c1`
Out: 100 % of control

In: Record: C=CCC(CC)C(=O)Cl (configuration not stated)
Out: 91 % of control

In: Can you handle `CC(=O)COc1ccccc1NC(C)=O` next?
Out: 106 % of control

In: Now the compound `NNC(=O)CCc1ccccc1O`
Out: 91 % of control

In: And `COc1cc(OC)c(OC)cc1C=NC1CCCCCCC1` ?
Out: 102 % of control

In: Now give it for `CN(C)/N=C(\CBr)c1ccc(Br)cc1` too.
Out: 89 % of control

In: How about `Cc1nc(OCc2ccccc2)c(C(=O)OCc2ccccc2)nc1C` ?
Out: 97 % of control

In: Likewise for `O=C(Nc1ccc([N+](=O)[O-])cc1)Nc1ccc([N+](=O)[O-])cc1` ?
Out: 90 % of control

In: Repeat for the following compound: `COC(=O)NC(C)(NC(=O)OC)C(=O)OC`
Out: 106 % of control

In: What do we get for COc1ccc(C(O)(c2ccccc2)C(OC(=O)CCl)c2ccccc2)cc1 (configuration not stated) ?
Out: 90 % of control

In: // same read-out, input: CCCCCCC(C)Cl (configuration not stated)
Out: 108 % of control

In: Next compound: CC(=O)CC(=O)NC(C)CCc1ccccc1 (configuration not stated)
Out: 92 % of control

In: What do you have for `COc1cc(C=O)ccc1OC(=O)Nc1cccc(Cl)c1Cl` ?
Out: 90 % of control

In: Same thing, different compound: O=C(C1CC2CCC1C2)C1CC2CCC1C2 (configuration not stated)
Out: 95 % of control

In: Repeat with `O=[N+]([O-])c1cc([N+](=O)[O-])c2nc3ccccn3c2c1`
Out: 102 % of control

In: Again, but for `C/C=C/C=C\COC(=O)C(C)(C)CCC`
Out: 90 % of control

In: Follow-up item: `COC(=O)C1(C(=O)OC)CCC=CC1=O`
Out: 93 % of control

In: Consider next the compound CN(C(=O)c1ccccc1Cl)C(c1ccco1)P(=O)(c1ccccc1)c1ccccc1 (configuration not stated) in the same way.
Out: 90 % of control

In: Next record, please: `Cc1cc(OS(C)(=O)=O)ccc1OS(C)(=O)=O`
Out: 94 % of control

In: What would you report for `CN(C)c1ccc(Cc2ccc(N(C)C)cc2)cc1` ?
Out: 94 % of control

In: Would you kindly repeat that for `Brc1cscc1-c1cccc2ccccc12` ?
Out: 86 % of control
